# test.method.notes: Hemolytic activity in sheep RBC assessed as hemolysis at 50 microg/ml incubated for 2 hrs
# Format: ADME, cell-based, Ovis aries, Erythrocyte
# particulars: red blood cells (erythrocytes), at 50 µg/mL, read-out: Activity
recorded.endpoint: hemolysis at 2 h, 50 microg/ml
The reply must contain the numeric value and, after it, the unit.

Study these solved cases before continuing.
[
  {
    "line.notation": "CC(C)CCOc1cccc(-c2cccc(OCc3cn(C[C@@H](CCCCN)NC(=O)[C@@H](CCCNC(=N)N)n4cc(CC5CCCCC5)nn4)nn3)c2)c1.Cl.Cl",
    "recorded.endpoint": "hemolysis at 2 h, 50 microg/ml",
    "value.observed": "76.7%"
  },
  {
    "line.notation": "CC(C)CCOc1ccc(-c2ccccc2OCc2cn(C[C@@H](CCCCN)NC(=O)[C@@H](CCCNC(=N)N)n3cc(CC4CCCCC4)nn3)nn2)cc1.Cl.Cl",
    "recorded.endpoint": "hemolysis at 2 h, 50 microg/ml",
    "value.observed": "63%"
  }
]

Next:
Ask: Dear colleague, I am looking for the recorded hemolysis at 2 h, 50 microg/ml of the following compound: CC(C)CCOc1ccc(-c2cccc(OCc3cn(C[C@@H](CCCCN)NC(=O)[C@@H](CCCNC(=N)N)n4cc(CC5CCCCC5)nn4)nn3)c2)cc1.Cl.Cl
Reply: 66.5%

---

Known hemolysis at 1 h of a selection of compounds
# test.method.notes: Hemolytic activity in human RBC assessed as maximal hemolysis at <= 32 ug/ml incubated for 1 hr by CO-ADD method
# Assay type: cell-based, Erythrocyte
# particulars: red blood cells (erythrocytes), dose <=32 µg/ml, read-out: Activity
Kindly provide the numeric value in % only, without the unit symbol.

These recorded examples may help you get a feel for the data.
[
  {
    "line.notation": "CC(C)CCOc1cccc(-c2ccccc2OCc2cn(C[C@@H](CCCCN)NC(=O)[C@@H](CCCNC(=N)N)n3cc(CC4CCCCC4)nn3)nn2)c1.Cl.Cl",
    "unit.tag": "%",
    "hemolysis at 1 h": 38
  },
  {
    "line.notation": "CC(C)CCOc1ccc(-c2ccc(OCc3cn(C[C@@H](CCCCN)NC(=O)[C@@H](CCCNC(=N)N)n4cc(CC5CCCCC5)nn4)nn3)cc2)cc1.Cl.Cl",
    "unit.tag": "%",
    "hemolysis at 1 h": 94
  }
]

Ask: Please report the recorded hemolysis at 1 h for CC(C)CCOc1ccccc1-c1cccc(OCc2cn(C[C@@H](CCCCN)NC(=O)[C@@H](CCCNC(=N)N)n3cc(CC4CCCCC4)nn3)nn2)c1.Cl.Cl .
Reply: 81

---

# test.method.notes: Cytotoxicity against human HEK-293 cells incubated for 23 hrs by CO-ADD method
# Format: cell-based, HEK293
recorded.endpoint: CC50 at 23 h

Example entries begin here.
[
  {
    "compound": "CC(C)CCOc1ccccc1-c1cccc(OCc2cn(C[C@@H](CCCCN)NC(=O)[C@@H](CCCNC(=N)N)n3cc(CC4CCCCC4)nn3)nn2)c1.Cl.Cl",
    "CC50 at 23 h": "> 32 µg/mL"
  },
  {
    "compound": "CC(C)CCOc1ccccc1-c1ccc(OCc2cn(C[C@@H](CCCCN)NC(=O)[C@@H](CCCNC(=N)N)n3cc(CC4CCCCC4)nn3)nn2)cc1.Cl.Cl",
    "CC50 at 23 h": "> 32 µg/mL"
  },
  {
    "compound": "CC(C)CCOc1ccccc1-c1ccccc1OCc1cn(C[C@@H](CCCCN)NC(=O)[C@@H](CCCNC(=N)N)n2cc(CC3CCCCC3)nn2)nn1.Cl.Cl",
    "CC50 at 23 h": "> 32 µg/mL"
  },
  {
    "compound": "CC(C)CCOc1cccc(-c2ccccc2OCc2cn(C[C@@H](CCCCN)NC(=O)[C@@H](CCCNC(=N)N)n3cc(CC4CCCCC4)nn3)nn2)c1.Cl.Cl",
    "CC50 at 23 h": "> 32 µg/mL"
  },
  {
    "compound": "CC(C)CCOc1cccc(-c2ccc(OCc3cn(C[C@@H](CCCCN)NC(=O)[C@@H](CCCNC(=N)N)n4cc(CC5CCCCC5)nn4)nn3)cc2)c1.Cl.Cl",
    "CC50 at 23 h": "> 32 µg/mL"
  },
  {
    "compound": "CCCCCCCCCCCCCCCC1OC2C3CC(C2O1)C(C(=O)NCCNC(=N)N)C3C(=O)NCCNC(=N)N.Cl.Cl (configuration not stated)",
    "CC50 at 23 h": "> 50 µg/mL"
  }
]

Query compound follows.
Ask: Value lookup for CC50 at 23 h; key = CC(C)CCOc1cccc(-c2cccc(OCc3cn(C[C@@H](CCCCN)NC(=O)[C@@H](CCCNC(=N)N)n4cc(CC5CCCCC5)nn4)nn3)c2)c1.Cl.Cl
Reply: 28.1 µg/mL

---

# test.method.notes: Hemolytic activity in sheep RBC assessed as hemolysis at 50 microg/ml incubated for 2 hrs
# Format: ADME, cell-based, Ovis aries, Erythrocyte
# particulars: red blood cells (erythrocytes), at 50 µg/mL, read-out: Activity
recorded.endpoint: hemolysis at 2 h, 50 microg/ml (%)
Record the value in %, omitting the unit from your answer.

[
  {
    "line.notation": "CC(C)CCOc1ccc(-c2ccc(OCc3cn(C[C@@H](CCCCN)NC(=O)[C@@H](CCCNC(=N)N)n4cc(CC5CCCCC5)nn4)nn3)cc2)cc1.Cl.Cl",
    "hemolysis at 2 h, 50 microg/ml / %": 57.2
  }
]

Ask: Query (compound): CC(C)CCOc1cccc(-c2ccccc2OCc2cn(C[C@@H](CCCCN)NC(=O)[C@@H](CCCNC(=N)N)n3cc(CC4CCCCC4)nn3)nn2)c1.Cl.Cl ; field requested: hemolysis at 2 h, 50 microg/ml
Reply: 72.1

Ask: Please give the result for CC(C)CCOc1ccccc1-c1ccc(OCc2cn(C[C@@H](CCCCN)NC(=O)[C@@H](CCCNC(=N)N)n3cc(CC4CCCCC4)nn3)nn2)cc1.Cl.Cl too.
Reply: 66.4

Ask: Repeat with CC(C)CCOc1ccccc1-c1ccccc1OCc1cn(C[C@@H](CCCCN)NC(=O)[C@@H](CCCNC(=N)N)n2cc(CC3CCCCC3)nn2)nn1.Cl.Cl
Reply: 66.6

Ask: How about this compound: CC(C)CCOc1ccccc1-c1cccc(OCc2cn(C[C@@H](CCCCN)NC(=O)[C@@H](CCCNC(=N)N)n3cc(CC4CCCCC4)nn3)nn2)c1.Cl.Cl
Reply: 38.2

Ask: What do we get for CC(C)CCOc1cccc(-c2ccc(OCc3cn(C[C@@H](CCCCN)NC(=O)[C@@H](CCCNC(=N)N)n4cc(CC5CCCCC5)nn4)nn3)cc2)c1.Cl.Cl ?
Reply: 40.8

---

# Tested on: Pseudomonas aeruginosa
# test.method.notes: Antimicrobial activity against Pseudomonas aeruginosa ATCC 27853 assessed as growth inhibition incubated for 18 hrs
# Format: functional
recorded.endpoint: MIC80 (µg/mL)
Report the figure in µg/mL without appending any unit label.

Observe how each entry below is paired with its result.
[
  {
    "line.notation": "CC(C)CCOc1ccccc1-c1cccc(OCc2cn(C[C@@H](CCCCN)NC(=O)[C@@H](CCCNC(=N)N)n3cc(CC4CCCCC4)nn3)nn2)c1.Cl.Cl",
    "system.tested": "Pseudomonas aeruginosa",
    "MIC80, µg/mL": 2
  },
  {
    "line.notation": "CC(C)CCOc1ccc(-c2ccc(OCc3cn(C[C@@H](CCCCN)NC(=O)[C@@H](CCCNC(=N)N)n4cc(CC5CCCCC5)nn4)nn3)cc2)cc1.Cl.Cl",
    "system.tested": "Pseudomonas aeruginosa",
    "MIC80, µg/mL": 8
  }
]

Consider now this further molecule.
Ask: Reported MIC80 for CC(C)CCOc1ccccc1-c1ccc(OCc2cn(C[C@@H](CCCCN)NC(=O)[C@@H](CCCNC(=N)N)n3cc(CC4CCCCC4)nn3)nn2)cc1.Cl.Cl : what is it?
Reply: 8

---

# test.method.notes: Cytotoxicity against human HEK-293 cells assessed as maximal inhibition at <= 32 ug/ml incubated for 23 hrs by CO-ADD method
# Assay type: cell-based, HEK293
# particulars: dose <=32 µg/ml, read-out: Imax
Each entry below carries its reported Emax at 23 h.
Express it in %; write the number only.

[
  {
    "line.notation": "CC(C)CCOc1ccc(-c2cccc(OCc3cn(C[C@@H](CCCCN)NC(=O)[C@@H](CCCNC(=N)N)n4cc(CC5CCCCC5)nn4)nn3)c2)cc1.Cl.Cl",
    "unit.tag": "%",
    "Emax at 23 h": 18
  },
  {
    "line.notation": "CC(C)CCOc1ccccc1-c1cccc(OCc2cn(C[C@@H](CCCCN)NC(=O)[C@@H](CCCNC(=N)N)n3cc(CC4CCCCC4)nn3)nn2)c1.Cl.Cl",
    "unit.tag": "%",
    "Emax at 23 h": 36
  },
  {
    "line.notation": "CC(C)CCOc1cccc(-c2ccc(OCc3cn(C[C@@H](CCCCN)NC(=O)[C@@H](CCCNC(=N)N)n4cc(CC5CCCCC5)nn4)nn3)cc2)c1.Cl.Cl",
    "unit.tag": "%",
    "Emax at 23 h": 43
  }
]

// moving on: another record for Emax at 23 h
Ask: What value of measured Emax at 23 h is listed for CC(C)CCOc1ccc(-c2ccc(OCc3cn(C[C@@H](CCCCN)NC(=O)[C@@H](CCCNC(=N)N)n4cc(CC5CCCCC5)nn4)nn3)cc2)cc1.Cl.Cl ?
Reply: 25

# credit: ChEMBL document CHEMBL4715932
